target: T1, His-tagged P3028 (human, also: His-tag, terminus and sequence not given here); assay: PEPSCAN ELISA (rampo)
T1 construct: used in solution in the PEPSCAN (rampo) ELISA; also called PGE73; His-tag-P3028; not shown: His tag
T1 peptide: VFDEFKPLVEEPQNLIK
No end group written: not given here.
Reported values of rampo score relative to the P28R control sample for individual entries

Consider the following illustrative entries.
binder	result
MKLDTFFVKLSLFTER [SEQ ID NO 275]	≥ 98 % of P28R control
KKLDTFFRKLSLFTER (also called P28R with R at position 8) [SEQ ID NO 330]	≥ 98 % of P28R control

rampo score relative to the P28R control sample measured on KKLATFFVKLSLFTER [SEQ ID NO 298] = ≥ 98 % of P28R control
